Origin of measurements: the supplement of paper PMC6755084

B1: F1*; the commonest letter at each place (parent)
chain: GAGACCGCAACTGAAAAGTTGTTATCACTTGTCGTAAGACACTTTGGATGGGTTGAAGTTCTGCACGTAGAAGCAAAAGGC

# Variants of: B1
# methodSummary: fraction ligated after 30 min (ligated reads / total reads); higher = more ligase activity
# studyConditions: with F1*sub RNA substrate (template-directed ligation), 42 °C
resultType: fraction ligated
No unit in the answer, please; the number alone is enough.

Solved cases (4 shown):
mutationCode: A39C G46T
resultType: fraction ligated
measuredResult: 0.776

mutationCode: G38T A41T
resultType: fraction ligated
measuredResult: 0.798

mutationCode: T25G T30C
resultType: fraction ligated
measuredResult: 0.372

mutationCode: G34T A41T
resultType: fraction ligated
measuredResult: 0.763

## Input Return the recorded fraction ligated value; entry: T35G C40G
## Output 0.837

## Input Return the recorded fraction ligated value; entry: A39G T43C
## Output 0.814

## Input Return the recorded fraction ligated value; entry: A36T C42G
## Output 0.835

## Input Return the recorded fraction ligated value; entry: C33A T45G
## Output 0.0419

## Input Return the recorded fraction ligated value; entry: G31C A41C
## Output 0.492

## Input Return the recorded fraction ligated value; entry: A36T A39T
## Output 0.836

## Input Return the recorded fraction ligated value; entry: G31A C42T
## Output 0.839

## Input Return the recorded fraction ligated value; entry: G38A C40G
## Output 0.843
